Assay: Fluorescence quantum yield measurement of compounds 1 to 6
Type: physicochemical
Attribute: Fluorescence quantum yield (Φf1)
ASSAY ENDPOINT: Fluorescence quantum yield (Φf1)

In [3]: df
Out[3]:
                                  structure                    assay_endpoint  value
0  COC(=O)c1cc(C(N)=O)ccc1-c1c2ccc(=O)cc-2oc2cc(O)ccc12  Fluorescence quantum yield (Φf1)  0.397
1  COC(=O)c1ccc(C(N)=O)cc1-c1c2ccc(=O)cc-2oc2cc(O)ccc12  Fluorescence quantum yield (Φf1)  0.018
2  COC(=O)c1cc(C#N)ccc1-c1c2ccc(=O)cc-2oc2cc(O)ccc12  Fluorescence quantum yield (Φf1)  0.161
3  COC(=O)c1ccc(C#N)cc1-c1c2ccc(=O)cc-2oc2cc(O)ccc12  Fluorescence quantum yield (Φf1)  0.007
